Data provenance is PubChem BioAssay (NCI).

Please respond with reported TGI for every item in the list.
- System: MOLT-4 leukemia
- assay comment: NCI tumour cell line growth inhibition, 48 h
Answers are plain numbers, in µM.

Examples with their reported TGI follow.
compound: CC(C)C[C@H]1[C@@H](OCc2ccccc2)COS(=O)N1[C@H](C)c1ccccc1 (stereo not given in full)
TGI [µM]: 51.3

compound: Cc1ccc(-c2cc(-c3ccc(Cl)cc3)nc(/N=C3\C(=O)N(CN4CCOCC4)c4ccc(Cl)cc43)n2)cc1
TGI [µM]: 57

Give me TGI for each of these compounds, listed below.
1. O=[N+]([O-])c1cc2c(c3nonc13)OCCCCO2
2. CC(=O)n1c2c(c(=O)n1-c1ccccc1)S(=O)CCC2 (stereo not given)
3. NS(=O)(=O)c1ccc(N(/C=C/C(=O)C(F)(F)F)CC(=O)c2ccc(Cl)cc2)cc1

1. 9.79
2. 6.9
3. 89.9

* * *

For each entry below, report its TGI value.
- System: LOX IMVI melanoma
- assay comment: NCI tumour cell line growth inhibition, 48 h

Answered cases to consult:
compound: COc1ccc(C(OCC2OC(n3cc(C)c(=O)[nH]c3=O)CC2n2cc(Cn3cc(Br)c(=O)[nH]c3=O)nn2)(c2ccccc2)c2ccccc2)cc1 (stereo not given)
target or system: LOX IMVI melanoma
value kind: TGI
value: > 100 µM

compound: CCOP(=O)(O)C(C)(C)NC
target or system: LOX IMVI melanoma
value kind: TGI
value: > 100 µM

compound: COc1c(OC)c(OC)c(C(=O)/C=C/c2ccccc2)c(OC)c1OC
target or system: LOX IMVI melanoma
value kind: TGI
value: 36.7 µM

compound: N#CC1(C#N)C2CCCCC23OC(=N)C1(C#N)C(c1ccccc1)O3 (stereo not given)
target or system: LOX IMVI melanoma
value kind: TGI
value: 45.1 µM

compound: Cn1c(N)c2c3c(sc2nc1=O)CCCC3
target or system: LOX IMVI melanoma
value kind: TGI
value: > 75 µM

compound: COC(=O)CN(C)P(=O)(N1CC1)N1CC1
target or system: LOX IMVI melanoma
value kind: TGI
value: > 100 µM

compound: CCCC(O)C(NC(=O)CCl)C(=O)O (stereo not given)
target or system: LOX IMVI melanoma
value kind: TGI
value: > 100 µM

compound: Nc1nc2c(ncn2Cc2ccc(CO)cc2)c(=O)[nH]1
target or system: LOX IMVI melanoma
value kind: TGI
value: > 100 µM

// each compound listed below needs its TGI
1. COc1ccc(/C(=N\NC(=O)C(N)=O)C(c2ccc(OC)cc2)C2(O)C(=O)Nc3c(Cl)cccc32)cc1 (stereo not given)
2. CCCCCCC[CH2][Sn]1([CH2]CCCCCCC)[O]C(=O)c2cccnc2[S]1

1. > 100 µM
2. > 100 µM

* * *

- Test system: COLO 205 colon
- assay comment: NCI tumour cell line growth inhibition, 48 h; in the data active = GI50 below about 0.43 µM; inactive = the rest
Valid outcomes are listed here; reply with one: active, inactive

// below: answered compounds
compound: COc1cccc2c1C(=O)c1c(O)c3c(c(O)c1C2=O)CC(O)(/C(C)=N/NC(=O)CCC(=O)N/N=C(\C)C1(O)Cc2c(O)c4c(c(O)c2C(OC2CC(N)C(O)C(C)O2)C1)C(=O)c1c(OC)cccc1C4=O)CC3OC1CC(N)C(O)C(C)O1 (stereo not drawn)
target or system: COLO 205 colon
answer label: active
//
compound: COc1cc(-c2nn(-c3cccc(NC(=O)Nc4ccc(Cl)c(Cl)c4)c3)cc2-c2ccncc2)ccc1Cl
target or system: COLO 205 colon
answer label: inactive

Would you mind telling me which call this test gave CC(C)=CCc1cc(O)cc2c1OC(C=C(C)C)C1=C2C(=O)C2=C(NCCS2(=O)=O)C1=O (stereo not drawn) ?
inactive

Would you mind telling me which call this test gave CCOC(=O)C(=Cc1cccc(Cl)c1)C(=O)OCC ?
inactive

Could you check what this test reported for CCN(CC)c1nc(-c2ccc(Cl)cc2Cl)nc2ccccc12 ?
inactive

Hi team, can someone confirm the assay call for COc1ccc2[nH]cc(-c3nc(-c4c[nH]c5ncccc45)cs3)c2c1 ?
inactive

Hello, I am checking results. What call was entered for Cc1cn2c(/C=C3\C(=O)Nc4ccc(O)cc43)c(-c3ccc(Cl)cc3)nc2s1 ?
inactive

Short answer needed: outcome of this test for Cc1csc(Nc2nc(-c3cccc(Br)c3)nc(C(Cl)(Cl)Cl)n2)n1 ?
inactive

* * *

Kindly supply the reported TGI values for the records listed here.
- System: HT29 colon
- assay comment: NCI tumour cell line growth inhibition, 48 h

compound: O=C(NC(CO)Cc1ccc(Oc2cc(CC(CO)NC(=O)OCc3ccccc3)ccc2OC(=O)OCc2ccccc2)cc1)OCc1ccccc1 (stereo not drawn)
value: > 100 µM
--
compound: C=CCCCCCCCCCCC1(O)C=CC2=[N+](CCCCCN=C(N)N)CCCN21 (stereo not drawn)
value: 22.7 µM
--
compound: COc1ccccc1N1CCN(CCCn2c(=O)c3c(OC)nc(C)cc3c(=O)n2-c2ccccc2)CC1
value: > 100 µM
--
compound: C[C@H]1NC(=O)C2CCCCN2C(=O)CN(C)C(=O)CNC(=O)C2CCCCN2C(=O)[C@@H](NC(=O)c2nc3ccccc3cc2O)[C@@H](C)NC(=O)C2CCCCN2C(=O)CN(C)C(=O)CNC(=O)[C@@H]2CCCCN2C(=O)C1NC(=O)c1nc2ccccc2cc1O (stereo partly drawn)
value: > 100 µM
--
compound: CCOC(=O)c1csc(NC(=O)CN2CCN(C)CC2)n1
value: > 100 µM
--
compound: CC(=O)Nc1ccc(-c2nc3cc(Cl)ccc3o2)cc1
value: > 50 µM
--
compound: Cc1cccc(C(C)C)c1NC(=O)CC1Sc2ccccc2NC1=O (stereo not drawn)
value: > 100 µM

Pending compound:
Entry Ic1ccc(-n2nnnc2-c2cnoc2-c2ccccc2)cc1 has what TGI?
> 100 µM

* * *

Answer each item with its documented TGI.
- Test system: UACC-62 melanoma
- assay comment: NCI tumour cell line growth inhibition, 48 h

Before answering, review these 5 worked examples.
compound: Ic1ccc(-n2nnnc2-c2cnoc2-c2ccccc2)cc1
TGI: > 83.6 µM
//
compound: CC1(C)OC2C(O)CN3CCS[C@H]3C2O1 (stereo partly specified)
TGI: > 100 µM
//
compound: CCCCCC(/C=C/C1CCC(=O)C1CC#C[Si](C)(C)C)OCc1ccccc1 (stereo unspecified)
TGI: 30.6 µM
//
compound: COC(=O)CN(C)P(=O)(N1CC1)N1CC1
TGI: > 100 µM
//
compound: Cc1c(CNc2ccc(C(=O)NC(CC(=O)O)C(=O)O)cc2)ccc2nc(N)nc(N)c12 (stereo unspecified)
TGI: > 1000 µM

For each of the compounds below, note its TGI.
1. S=c1[nH]n2c(COc3cccc(OCc4nnc5sc(=S)[nH]n45)c3)nnc2s1
2. CC(C)=CCc1cc(O)cc2c1OC(C=C(C)C)C1=C2C(=O)C2=C(NCCS2(=O)=O)C1=O (stereo unspecified)
3. CC(C)(C)c1cc(C(=O)/C=C/C=C/c2ccccc2)cc(C(C)(C)C)c1O
4. NCCCNCCCCNCCCN
5. CC(C)=C1C(=O)C[C@]2(C)C[C@H]3/C(=C(/C)CCC12)CC[C@@]3(C)O (stereo partly specified)
6. Cc1ccc(Cl)cc1Nc1nc(C(F)(F)F)ccc1C(=O)N1CCN(c2cccc(Cl)c2)CC1

> 100 µM
3.5 µM
> 71.4 µM
> 100 µM
> 50 µM
> 100 µM

* * *

- Test system: 786-0 renal
- assay comment: NCI tumour cell line growth inhibition, 48 h
Could you please report measured TGI for the items listed next?

Examples with their reported TGI follow.
compound: CCCNC(=S)/N=C/c1c(O)c2ccccc2[nH]c1=O
target or system: 786-0 renal
value: > 100 µM
--
compound: Nc1nc2c(ncn2Cc2ccc(CO)cc2)c(=O)[nH]1
target or system: 786-0 renal
value: > 100 µM
--
compound: O=C(/C=C/C=C/c1ccccc1)c1ccc2c(c1)CCCC2
target or system: 786-0 renal
value: > 100 µM
--
compound: Cc1ccc(NC(=O)C2C(=O)N(c3ccc(C)c(C)c3)C(=O)C2N=N)cc1C (configuration not stated)
target or system: 786-0 renal
value: > 100 µM
--
compound: CCCCCCC[CH2][Sn]1([CH2]CCCCCCC)[O]C(=O)c2cccnc2[S]1
target or system: 786-0 renal
value: > 100 µM

Dear reader, for each entry below, please note its TGI.
1. C#CCN(CC#C)C(=O)C(=O)c1c[nH]c2ccc(OC)cc12
2. CN(C)/C=N/n1c2ccccc2c2ccccc21

["31 µM", "> 100 µM"]

Provide each entry's TGI from the list below.
1. O=C(O)CCN(CCC(=O)O)c1ccc(/C=C2\SC(=S)NC2=O)cc1
2. O=C1NC(=S)NNC12c1ccccc1-c1ccccc12

1: > 100 µM; 2: > 10 µM
